Target: Bovine Striatum (3H-CCK-8-(SO3 H) receptor binding) (Bos taurus)
Construct: tissue homogenate (striatum approximately 0.26 mg protein in 2 mL final volume); from tissue; host or cells: bovine striatum membrane homogenate
Sequence (P79266 1-454): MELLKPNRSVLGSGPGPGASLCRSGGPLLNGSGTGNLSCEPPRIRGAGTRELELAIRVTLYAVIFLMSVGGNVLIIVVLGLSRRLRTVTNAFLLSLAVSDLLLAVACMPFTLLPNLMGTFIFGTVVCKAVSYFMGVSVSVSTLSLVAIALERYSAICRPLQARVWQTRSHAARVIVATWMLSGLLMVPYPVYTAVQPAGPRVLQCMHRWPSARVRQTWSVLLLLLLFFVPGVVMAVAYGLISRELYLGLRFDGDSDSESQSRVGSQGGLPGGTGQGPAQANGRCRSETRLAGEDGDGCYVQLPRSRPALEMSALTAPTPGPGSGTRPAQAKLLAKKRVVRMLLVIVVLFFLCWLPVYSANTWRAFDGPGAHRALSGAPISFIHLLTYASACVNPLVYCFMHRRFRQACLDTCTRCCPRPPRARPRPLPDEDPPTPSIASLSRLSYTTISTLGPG
Assay: In vitro receptor binding assay, 3H-CCK-8-(SO3H), bovine striatum homogenate
Conditions: 3H-CCK-8-(SO3H) 0.15 nM, 30 min at 25° C., bovine striatum homogenate; read-out: Bovine Striatum IC50 (concentration to inhibit 50% of specific 3H-CCK-8-(SO3H) binding)
Starred links: 1 amine or outer side, 2 acyl side, 3 side chain; linkers in the order of their positions; H or OH if unused. Positions of bridges follow the written chain, without caps; N, C: chain ends. Non-standard residues stand in square brackets, D forms with d. Residues, ends and D or L forms follow the SMILES beside them. *: point of attachment. Phe(4-tetrazol-5-yl) = N[C@@H](Cc1ccc(-c2nnn[nH]2)cc1)C(=O)O; X6 = O=C([C@H](Cc1ccc(Cc2nnn[nH]2)cc1)N[*:1])[*:2]; X3 = CCOC(=O)Cc1ccc(C[C@@H](N[*:1])C(=O)[*:2])cc1; X5 = CCOC(=O)Cc1ccc(C[C@H](N[*:1])C(=O)[*:2])cc1; X1 = O=C(O)Cc1ccc(CC(N[*:1])C(=O)[*:2])cc1; X14 = O=C(O)c1cccc(CC(N[*:1])C(=O)[*:2])c1; X10 = O=C(CCc1ccc(-c2nn[nH]n2)cc1)*; NMeF = CN[C@@H](Cc1ccccc1)C(=O)O; Nle = CCCC[C@H](N)C(=O)O
IC50 under 50 nM gets MET, anything at or over 50 nM gets NOT MET.

compound: CSCC[C@@H]1NC(=O)[C@H](Cc2c[nH]c3ccccc23)NC(=O)CNC(=O)[C@@H](NC(=O)CCc2ccc(-c3nn[nH]n3)cc2)CCCCNC(=O)C[C@@H](C(=O)N(C)[C@@H](Cc2ccccc2)C(N)=O)NC1=O [Example 68] (X10-KGWMD[NMeF]-NH2; lactam 1-5)
class.name: NOT MET
//
compound: CCOC(=O)Cc1ccc(C[C@H](NC(C)=O)C(=O)N[C@@H](CCSC)C(=O)NCC(=O)N[C@@H](Cc2c[nH]c3ccccc23)C(=O)N[C@@H](CCSC)C(=O)N[C@@H](CC(=O)OCC)C(=O)N[C@@H](Cc2ccccc2)C(N)=O)cc1 [Example 50] (Ac-[X5]MGWMD(OEt)F-NH2)
class.name: NOT MET
//
compound: CSCC[C@H](NC(=O)C(Cc1ccc(CC(=O)O)cc1)NC(C)=O)C(=O)NCC(=O)N[C@@H](Cc1c[nH]c2ccccc12)C(=O)N[C@@H](CCSC)C(=O)N[C@@H](CC(=O)O)C(=O)N[C@@H](Cc1ccccc1)C(N)=O (stereo partly shown) [Example 46] (Ac-[X1]MGWMDF-NH2)
class.name: MET
//
compound: CSCC[C@H](NC(=O)C(Cc1cccc(C(=O)O)c1)NC(C)=O)C(=O)NCC(=O)N[C@@H](Cc1c[nH]c2ccccc12)C(=O)N[C@@H](CCSC)C(=O)N[C@@H](CC(=O)O)C(=O)N[C@@H](Cc1ccccc1)C(N)=O (stereo partly shown) [Example 42] (Ac-[X14]MGWMDF-NH2)
class.name: MET
//
compound: CCCC[C@H](NC(=O)[C@H](Cc1ccc(Cc2nnn[nH]2)cc1)NC(C)=O)C(=O)NCC(=O)N[C@@H](Cc1c[nH]c2ccccc12)C(=O)N[C@@H](CCCC)C(=O)N[C@@H](CC(=O)O)C(=O)N(C)[C@@H](Cc1ccccc1)C(N)=O [Example 65] (Ac-[X6][Nle]GW[Nle]D[NMeF]-NH2)
class.name: NOT MET
//
compound: CSCC[C@H](NC(=O)[C@H](Cc1ccc(-c2nnn[nH]2)cc1)NC(C)=O)C(=O)NCC(=O)N[C@@H](Cc1c[nH]c2ccccc12)C(=O)N[C@@H](CCSC)C(=O)N[C@@H](CC(=O)O)C(=O)N[C@@H](Cc1ccccc1)C(N)=O [Example 55, AcPhe(4-tetrazole)MetGlyTrpMetAspPheNH2] (Ac-[Phe(4-tetrazol-5-yl)]MGWMDF-NH2)
class.name: MET

Does this compound meet the criterion IC50 < 50 nM? CCOC(=O)Cc1ccc(C[C@@H](NC(C)=O)C(=O)N[C@@H](CCSC)C(=O)NCC(=O)N[C@@H](Cc2c[nH]c3ccccc23)C(=O)N[C@@H](CCSC)C(=O)N[C@@H](CC(=O)OCC)C(=O)N[C@@H](Cc2ccccc2)C(N)=O)cc1 [Example 49] (Ac-[X3]MGWMD(OEt)F-NH2)
NOT MET
